Numbers sourced from patent US20240327525A1.

This listing pairs binders with measured koff.
test_target: T1, human CI-M6PR domain1-3His6 (human, UniProt P11717 41-467)
T1 construct: Recombinant, made in HEK293 cells; Biotinylated with NHS-PEG4-biotin for BLI; unlabelled in SEC-MALLS and crystallisation; also called CI-M6PR hDom1-3His6; hDom1-3His6
measurement_notes: BLI, association pH 7.4, dissociation at pH 6.0, mean of local fits

binder: humanized variant VHH7h1 (VHH, Made in E. coli, IMAC purified; tag not specified) VHH: EVQLVESGGGLVQPGGSLRLSCAASGIIFSDNRMDWYRQAPGKQREWVATLASYGWKTYADSVKGRFTISRDNSKNTVYLQMNSLRPEDTAVYYCKASSPVLNDIWGQGTLVTVSS
assay_result: 0.012 s⁻¹
//
binder: humanized variant VHH8h1 (VHH, Made in E. coli, IMAC purified; tag not specified) VHH: EVQLVESGGGLVQPGGSLRLSCAASGRTFNTYNWGWFRQAPGKEREFVAAIRWSSSKTSYADSVKGRFTISRDNSKNTVYLQMNSLRPEDTAVYYCAASIVDFTTNPSHFGSWGQGTLVTVSS
assay_result: 0.0015 s⁻¹
//
binder: humanized variant VHH8h2 (VHH, Made in E. coli, IMAC purified; tag not specified) VHH: DVQLVESGGGLVQPGGSLRLSCAASGRTFNTYNWGWFRQAPGKEREFVAAIRWSSSKTSYADSVKGRFTISRDNSKNTVYLQMNSLRPEDTAVYYCAASIVDFTTNPSHFGSWGQGTLVTVSS
assay_result: 0.0015 s⁻¹

Pending binder:
Fill blank: measured koff of the binder humanized variant VHH7h2 (VHH, Made in E. coli, IMAC purified; tag not specified) VHH: DVQLVESGGGLVQPGGSLRLSCAASGIIFSDNRMDWYRQAPGKQREWVATLASYGWKTYADSVKGRFTISRDNSKNTVYLQMNSLRPEDTAVYYCKASSPVLNDIWGQGTLVTVSS is ____.
0.011 s⁻¹
